# system-name: NOS-III (Homo sapiens, UniProt P29474)
# measurement-notes: Inhibition of human NOS isoforms: NOS-III
# Format: biochemical
# condition: human NOS-III
recorded-metric: Activity (% of control)

>>> measurement("COc1ccc(-c2cnc3nc(N)nc(N(Cc4ccccc4)Cc4ccccc4)c3n2)cc1")
"68 ± 2 % of control"
>>> measurement("CCCN(CCC)c1nc(N)nc2c1NC(c1ccccc1)CN2.Cl.Cl.Cl.O (stereo not shown)")
"27 ± 0.2 % of control"
>>> measurement("CCCN(CCC)c1nc(N)nc2c1NC(c1ccc(OC)cc1)CN2.Cl.Cl.O.O (stereo not shown)")
"31 ± 3 % of control"
>>> measurement("Nc1nc(NCC2CCCCC2)c2c(n1)NCC(c1ccc(Cl)cc1)N2 (stereo not shown) [Example 49, hydrate]")
"18 ± 1 % of control"

###

# system-name: NOS-I (Homo sapiens, UniProt P29475)
# measurement-notes: Inhibition of human NOS isoforms: NOS-I
# Format: biochemical
Quick list: Activity (% of control) per entry.
recorded-metric: Activity (% of control)

>>> measurement("Nc1nc(NCC2CCCCC2)c2c(n1)NCC(c1ccc(Cl)cc1)N2 (stereo not shown) [Example 49, hydrate]")
"0 ± 0.1 % of control"
>>> measurement("CCCN(CCC)c1nc(N)nc2c1NC(c1ccccc1)CN2.Cl.Cl.Cl.O (stereo not shown) [Example 46]")
"1 ± 0.1 % of control"
>>> measurement("COc1ccc(-c2cnc3nc(N)nc(N(Cc4ccccc4)Cc4ccccc4)c3n2)cc1 [Example 21]")
"27 ± 1 % of control"
>>> measurement("CCCN(CCC)c1nc(N)nc2c1NC(c1ccc(OC)cc1)CN2.Cl.Cl.O.O (stereo not shown) [Example 47]")
"0 ± 0.1 % of control"

###

# system-name: UniProt P35228
# measurement-notes: Inhibition of human NOS isoforms: NOS-II
# Type: biochemical
# condition: human NOS-II
recorded-metric: Activity (% of control)

>>> measurement("CCCN(CCC)c1nc(N)nc2c1NC(c1ccccc1)CN2.Cl.Cl.Cl.O (stereo not shown) [Example 46]")
"68 ± 1 % of control"
>>> measurement("COc1ccc(-c2cnc3nc(N)nc(N(Cc4ccccc4)Cc4ccccc4)c3n2)cc1 [Example 21]")
"81 ± 6 % of control"
>>> measurement("CCCN(CCC)c1nc(N)nc2c1NC(c1ccc(OC)cc1)CN2.Cl.Cl.O.O (stereo not shown) [Example 47]")
"78 ± 0.4 % of control"
>>> measurement("Nc1nc(NCC2CCCCC2)c2c(n1)NCC(c1ccc(Cl)cc1)N2 (stereo not shown) [Example 49, hydrate]")
"78 ± 6 % of control"
